# system: T1, TRBP-dsRBDmt2 (human, UniProt Q15633 1-366, K210A;K211A)
# T1 sequence: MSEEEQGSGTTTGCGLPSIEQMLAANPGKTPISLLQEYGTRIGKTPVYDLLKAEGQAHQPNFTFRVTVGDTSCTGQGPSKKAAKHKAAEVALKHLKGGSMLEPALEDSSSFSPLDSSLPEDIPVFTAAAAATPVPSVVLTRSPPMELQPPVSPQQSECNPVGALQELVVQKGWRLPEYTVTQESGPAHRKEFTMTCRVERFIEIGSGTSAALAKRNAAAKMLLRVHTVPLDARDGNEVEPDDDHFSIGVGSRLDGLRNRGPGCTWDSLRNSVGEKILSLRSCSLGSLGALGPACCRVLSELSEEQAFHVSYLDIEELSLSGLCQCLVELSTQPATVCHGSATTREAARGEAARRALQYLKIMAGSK
# experimentalProtocol: EMSA; single-step complex; EMSA: 20 mM Tris pH 7.5, 150 mM NaCl, 2 mM EDTA, 1 mM 2-mercaptoethanol, 1 mM DTT, 50 ng/ul salmon sperm DNA, 0.4 U/ul RNasin, 0.5 nM 32P-siRNA, 30 min on ice
# measurementConditions: protein: recombinant; tags: N-His6;C-myc; label: 32P guide strand; 2 nt 3' overhangs
assayMetric: pKd
In simple prose, pKd is minus the logarithm base ten of a concentration in moles per litre.

Input: Hello, please tell me recorded pKd for this one: siLuc2-153 (dsRNA) RNA 1: UCGAAGUAUUCCGCGUACGUG RNA 2: CGUACGCGGAAUACUUCGAUU
Output: 6.28

src = paper PMC3642127
